B1: Hairpin Ribozyme (parent)
chain: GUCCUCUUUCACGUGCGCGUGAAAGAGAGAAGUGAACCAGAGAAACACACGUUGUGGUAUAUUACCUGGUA

variants of: B1; test: self-cleavage, relative activity (ratio to wild type); higher = more cleavage; co-transcriptional
Metric name: self-cleavage
Enter the number alone.

State its self-cleavage for this variant: C6G A45U
0.101

Annotate the variant U5C G27U with its measured self-cleavage.
0.0794

Given U7C G34C , respond with its self-cleavage.
1.37

Please supply the value of reported self-cleavage for the item A11U G17C
0.566

Let me know recorded self-cleavage for C18G A45C , thanks.
0.152

Check the records and state self-cleavage for U2G A39C
0.177

Report measured self-cleavage; entry is A22C G56U
0.148

Please report the measured self-cleavage for C66G G69C
0.145

Specify reported self-cleavage for the variant shown: C16A G42A
0.366

Give the reported self-cleavage for this variant. U33A U67C
0.104

Find the measured self-cleavage of U62G U70A and report it.
0.163

Consider the variant A28U U70A . State its measured self-cleavage.
0.422

Report self-cleavage, nothing else, for this variant: C38A C66G
0.114

Please look at this variant and report its self-cleavage: G21C U58C
0.77

Provide one value: measured self-cleavage of C10G C38G
0.133

Read the entry C10A A45C and write its reported self-cleavage.
0.111

Given the variant C12G U70A , write its reported self-cleavage.
0.728

Hello, please tell me recorded self-cleavage for this one: G1C U55G
0.132

Tell us which self-cleavage value is on record for G42A C46U
0.0972

Report self-cleavage, nothing else, for this variant: A59G G68C
0.144

Give me measured self-cleavage, please, for this variant: U2A C48U
0.104

Note self-cleavage for the variant shown: A22G U58G
0.528

Consider the variant A31C G57U . State its measured self-cleavage.
0.0476

For A22C A49U , write its self-cleavage.
0.204

Indicate its recorded self-cleavage; the variant in question is U52G A71U
0.572

Identify measured self-cleavage associated with A23G G40C
0.16

Give me measured self-cleavage, please, for this variant: A45C C65A
0.2

// Input: A24G G32C . Output its self-cleavage only.
0.242

Note self-cleavage for the variant shown: A36U A71U
0.524

Read the entry A26U G68A and write its reported self-cleavage.
0.23

State its self-cleavage: U2A G34A
0.319

Fill in self-cleavage for record U2C U60G
0.226

Indicate the recorded self-cleavage value for this variant: G1U G54U
0.141

Given the variant C12G G40A , write its reported self-cleavage.
0.266

In one line, give reported self-cleavage of the entry U14C U63G .
0.0837

Give me measured self-cleavage, please, for this variant: G27U G29U
0.119

Complete the entry with self-cleavage for A28G C50G
0.467

// Input: U2A A61G . Output its self-cleavage only.
0.106

Supply self-cleavage value. Item: U20G C38U
0.542

Output self-cleavage of U58A G68C
0.194

Give me measured self-cleavage, please, for this variant: C6A U58C
0.697

State its self-cleavage: G1C G54C
0.072

State, in one line, measured self-cleavage of U5G A28C
0.0791

Annotate the variant A59G C66U with its measured self-cleavage.
0.0625

State its self-cleavage for this variant: A39G A49U
0.0948

Specify measured self-cleavage for G17C G34U .
1.42

Supply measured self-cleavage of U2G G51A in your reply.
0.306

Let me know recorded self-cleavage for A11G G15C , thanks.
0.859

Specify self-cleavage for C3G C50U and stop.
0.13

Give the reported value of self-cleavage for this record: G1A C16A
0.172

Give self-cleavage for A35U A41G
0.599

Output self-cleavage of A31U A45U
0.131

Annotate the variant U2C U8G with its measured self-cleavage.
0.118

Supply self-cleavage value. Item: A28C A39C
0.238

// fetch self-cleavage given entry U20A A23G
0.783

// Input: C4G G13C . Output its self-cleavage only.
0.178

Note down self-cleavage recorded for A41U G56A
0.285

Specify measured self-cleavage for C16A A39C .
0.484

Retrieve self-cleavage measured for U9C A44C and print it.
0.183

Complete the entry with self-cleavage for G17C C18A
0.947

Look up self-cleavage of A26C G69U and report it.
0.108

Supply recorded self-cleavage for G17A C50G here.
0.327

Identify self-cleavage associated with the variant U8A C50G
0.21

Report self-cleavage for A24C A41U
0.996

Check the records and state self-cleavage for A39C A71C
0.88

Indicate its recorded self-cleavage; the variant in question is U55C A59C
0.0877

Fill in reported self-cleavage for this entry: C46A U58G
0.158

# return recorded self-cleavage for input G34C C37A
0.898

Find the measured self-cleavage of G56A U63C and report it.
0.286

Item U7G A36C : provide self-cleavage
0.669

Let me know recorded self-cleavage for C38A , thanks.
0.171

For U9C C66A , write its self-cleavage.
0.248

Answer with the recorded self-cleavage of G1A A44U only.
0.17

Consider the variant U5A A64C and give its recorded self-cleavage.
0.151

Write down self-cleavage measured for item A36C A71U
0.654

Report self-cleavage for G1C A24U
0.19

State, in one line, measured self-cleavage of G34A C65G
0.477

Note self-cleavage for the variant shown: A45G U63C
0.0324

Name the recorded self-cleavage of the variant listed here: A44G G54C
0.119

For the variant A24C G51U , give its measured self-cleavage value.
0.878

Give self-cleavage for C37A C38U
0.0834

State, in one line, measured self-cleavage of U8C A36C
0.671

Provide one value: measured self-cleavage of C10G G15A
0.624

Provide self-cleavage value for the following variant: G15A A49U
0.149

Give recorded self-cleavage. C10U U55C
0.337

Recall and state the measured self-cleavage for A36G U52G .
0.882

Identify measured self-cleavage associated with G25A A39G
0.192

Fill in reported self-cleavage for this entry: G57A A59G
0.171

Provide measured self-cleavage value, entry: C3A U62A
0.184

Annotate the variant G32U A59C with its measured self-cleavage.
0.0899

Fill in self-cleavage for record G1C U62C
0.0543
